- method-description: Terminal half life in HIV-negative human at 400 mg, po administered as single dose
- Type: ADME, organism-based
- recorded-conditions: in vivo, read-out: beta t1/2 (converted)
measurement-label: half-life (h)
Numbers only, in h.

# get_value(readout='half-life', item= Cc1nnc(C(=O)NC(C)(C)c2nc(C(=O)NCc3ccc(F)cc3)c(O)c(=O)n2C)o1 )
10.8
